Please go through the items and note down their Average Area Under the Viability Curve (AUC), AUC norm value.
System: SNU601
experiment-description: Cell viability drug screen, 12-point dose-response AUC
Type: cell-based, human
run-conditions: SNU601 cells; 72 hours
Method: An FDA-approved small-molecule pharmacological compound (#L1300) and an anticancer compound for research (#L2000) were purchased from Selecckchem and a 10 mM solution was prepared in DMSO. […] Cells cultured for cell-based drug assay were inoculated into a 96-well white optical plate (Corning) at 5×10^3 cells per well. […] The final drug concentration in the 5 ns range and the DMSO specification control (0.5%) were calculated. […]
Answer as a number with no unit attached.

Task: Give a short answer stating reported Average Area Under the Viability Curve (AUC), AUC norm value for CC[C@]1(O)C[C@@H]2CN(CCc3c([nH]c4ccccc34)[C@@](C(=O)OC)(c3cc4c(cc3OC)N(C)[C@H]3[C@@](O)(C(=O)OC)[C@H](OC(C)=O)[C@]5(CC)C=CCN6CC[C@]43[C@@H]65)C2)C1 .
Output: 0

Task: Find the measured Average Area Under the Viability Curve (AUC), AUC norm value of CO[C@@H](C(=O)N1Cc2n[nH]c(NC(=O)c3ccc(N4CCN(C)CC4)cc3)c2C1)c1ccccc1 and report it.
Output: 2.877

Task: Specify reported Average Area Under the Viability Curve (AUC), AUC norm value for the compound shown: O=C(Nc1c[nH]nc1-c1nc2ccc(CN3CCOCC3)cc2[nH]1)NC1CC1
Output: 1.648

Task: Note Average Area Under the Viability Curve (AUC), AUC norm value for the compound shown: CO[C@H]1C(=O)[C@]2(C)[C@@H](OC)C[C@H]3OC[C@@]3(OC(C)=O)[C@H]2[C@H](OC(=O)c2ccccc2)[C@]2(O)C[C@H](OC(=O)[C@H](O)[C@@H](NC(=O)OC(C)(C)C)c3ccccc3)C(C)=C1C2(C)C
Output: −1.688

Task: Look up and report measured Average Area Under the Viability Curve (AUC), AUC norm value for this entry: CCCCCCCCCCCCCCCC[n+]1ccccc1 [Cetylpyridinium Chloride]
Output: 2.328

Task: Assign Average Area Under the Viability Curve (AUC), AUC norm value to the following record: CC[C@@H]1C(=O)N(C)c2cnc(Nc3ccc(C(=O)N[C@H]4CC[C@H](N5CCN(CC6CC6)CC5)CC4)cc3OC)nc2N1C(C)C
Output: 0.4757

---

System: NCC20
experiment-description: Cell viability drug screen, 12-point dose-response AUC
Format: cell-based, human
run-conditions: NCC20 cells; 72 hours; 12-point dose-response
Record form. Attribute: area under the viability curve (AUC), normalized. Fill in for each entry.

Task: Give reported area under the viability curve (AUC), normalized value for CC(C)C[C@H](NC(=O)CNC(=O)c1cc(Cl)ccc1Cl)B(O)O [MLN2238]
Output: −1.247

Task: Give the reported area under the viability curve (AUC), normalized for this compound. CN(C)c1ccc(C(=C2C=CC(=[N+](C)C)C=C2)c2ccc(N(C)C)cc2)cc1 [Crystal Violet, Crystal violet]
Output: −1.031

Task: Check the records and state area under the viability curve (AUC), normalized for CC(C)[C@]12O[C@H]1[C@@H]1O[C@]13[C@]1(O[C@H]1C[C@H]1C4=C(CC[C@@]13C)C(=O)OC4)[C@@H]2O [Triptolide]
Output: 0

Task: Could you please provide reported area under the viability curve (AUC), normalized for COCCn1c2c([n+](Cc3cnccn3)c1C)C(=O)c1ccccc1C2=O [YM155] ? Thanks!
Output: 0

Task: Entry CCCCc1nc2cc(/C=C/C(=O)NO)ccc2n1CCN(CC)CC [SB939 (Pracinostat), Pracinostat] needs its area under the viability curve (AUC), normalized filled in; supply it.
Output: −0.08068

Task: Using the record for CC(=O)O[C@H]1C(=O)[C@@]2(C)[C@H]([C@H](OC(=O)c3ccccc3)[C@]3(O)C[C@H](OC(=O)[C@H](O)[C@@H](NC(=O)c4ccccc4)c4ccccc4)C(C)=C1C3(C)C)[C@]1(OC(C)=O)CO[C@@H]1C[C@@H]2O [Paclitaxel (Taxol), Paclitaxel] , state its measured area under the viability curve (AUC), normalized.
Output: 0

Task: Give me measured area under the viability curve (AUC), normalized, please, for this compound: Nc1cc(C(F)(F)F)c(-c2cc(N3CCOCC3)nc(N3CCOCC3)n2)cn1 [BKM120]
Output: −0.07502

Task: // fetch area under the viability curve (AUC), normalized given entry CC(/C=C/C(=O)NO)=C\[C@@H](C)C(=O)c1ccc(N(C)C)cc1 [Trichostatin A (TSA), Trichostatin A]
Output: −1.842

---

Hi there, I'd appreciate the recorded area under the viability curve (AUC), normalized for every entry that follows.
System: SNU484
experiment-description: Cell viability drug screen, 12-point dose-response AUC
Format: cell-based, human
run-conditions: SNU484 cells; 72 hours; 12-point dose-response

Task: Return value of area under the viability curve (AUC), normalized for input CC(=O)O[C@H]1C(=O)[C@@]2(C)[C@H]([C@H](OC(=O)c3ccccc3)[C@]3(O)C[C@H](OC(=O)[C@H](O)[C@@H](NC(=O)c4ccccc4)c4ccccc4)C(C)=C1C3(C)C)[C@]1(OC(C)=O)CO[C@@H]1C[C@@H]2O [Paclitaxel (Taxol), Paclitaxel] , no commentary.
Output: −0.3604

Task: Specify measured area under the viability curve (AUC), normalized for CC(C)[C@]12O[C@H]1[C@@H]1O[C@]13[C@]1(O[C@H]1C[C@H]1C4=C(CC[C@@]13C)C(=O)OC4)[C@@H]2O [Triptolide] .
Output: −1.234

Task: Input C[C@@H]1O[C@@H](O[C@H]2C[C@@H](O)[C@]3(CO)[C@H]4[C@H](O)C[C@]5(C)[C@@H](C6=CC(=O)OC6)CC[C@]5(O)[C@@H]4CC[C@]3(O)C2)[C@H](O)[C@H](O)[C@H]1O [Oubain, Ouabain] , output reported area under the viability curve (AUC), normalized.
Output: −2.03

---

Test system: SNU719
experiment-description: Cell viability drug screen, 12-point dose-response AUC
Format: cell-based, human
run-conditions: SNU719 cells; 72 hours; 12-point dose-response
Give measured area under the viability curve (AUC), normalized for each item. Keep answers brief.
Output spec: single numeric token, no unit.

Task: Provide measured area under the viability curve (AUC), normalized value, entry: CC(C)C[C@H](NC(=O)[C@H](Cc1ccccc1)NC(=O)c1cnccn1)B(O)O
Output: 1.081

Task: Give the reported area under the viability curve (AUC), normalized for this compound. Cc1ccc(C(=O)N(CCCN)[C@@H](c2oc3cc(Cl)ccc3c(=O)c2Cc2ccccc2)C(C)C)cc1
Output: 2.115

Task: // fetch area under the viability curve (AUC), normalized given entry Nc1cc(C(F)(F)F)c(-c2cc(N3CCOCC3)nc(N3CCOCC3)n2)cn1
Output: 3.314

Task: Name the recorded area under the viability curve (AUC), normalized of the compound listed here: CCCCc1nc2cc(/C=C/C(=O)NO)ccc2n1CCN(CC)CC
Output: 2.187

Task: State its area under the viability curve (AUC), normalized: CC(/C=C/C(=O)NO)=C\[C@@H](C)C(=O)c1ccc(N(C)C)cc1
Output: 1.883

Task: Identify the reported area under the viability curve (AUC), normalized for the following entry. COCCn1c2c([n+](Cc3cnccn3)c1C)C(=O)c1ccccc1C2=O
Output: 3.789

Task: Tell me area under the viability curve (AUC), normalized reported for C[C@@H]1O[C@@H](O[C@H]2C[C@@H](O)[C@]3(CO)[C@H]4[C@H](O)C[C@]5(C)[C@@H](C6=CC(=O)OC6)CC[C@]5(O)[C@@H]4CC[C@]3(O)C2)[C@H](O)[C@H](O)[C@H]1O
Output: 5.038

---

System: MKN74
experiment-description: Cell viability drug screen, 12-point dose-response AUC
Type: cell-based, human
run-conditions: MKN74 cells; 72 hours
Protocol: An FDA-approved small-molecule pharmacological compound (#L1300) and an anticancer compound for research (#L2000) were purchased from Selecckchem and a 10 mM solution was prepared in DMSO. […] Cells cultured for cell-based drug assay were inoculated into a 96-well white optical plate (Corning) at 5×10^3 cells per well. […] The final drug concentration in the 5 ns range and the DMSO specification control (0.5%) were calculated. […]
Where a name gives a salt, the structure may show the parent alone.
measured-metric: Average Area Under the Viability Curve (AUC), AUC norm value
Lab note: write the figure by itself, no unit.

Task: Look up and state reported Average Area Under the Viability Curve (AUC), AUC norm value for C/C=C(\C)C(=O)N[C@@H](c1ccccc1)[C@@H](O)C(=O)O[C@H]1C[C@@]2(O)[C@@H](OC(=O)c3ccccc3)[C@@H]3[C@]4(OC(C)=O)CO[C@@H]4C[C@H](O)[C@@]3(C)C(=O)[C@H](OC(C)=O)C(=C1C)C2(C)C
Output: 0.3528

Task: Identify Average Area Under the Viability Curve (AUC), AUC norm value associated with the compound CO[C@H]1C(=O)[C@]2(C)[C@@H](OC)C[C@H]3OC[C@@]3(OC(C)=O)[C@H]2[C@H](OC(=O)c2ccccc2)[C@]2(O)C[C@H](OC(=O)[C@H](O)[C@@H](NC(=O)OC(C)(C)C)c3ccccc3)C(C)=C1C2(C)C
Output: 0.4319

Task: Indicate its recorded Average Area Under the Viability Curve (AUC), AUC norm value; the compound in question is OC1(c2ccc(Cl)c(C(F)(F)F)c2)CCN(CCCC(c2ccc(F)cc2)c2ccc(F)cc2)CC1
Output: −1.133

Task: Please indicate Average Area Under the Viability Curve (AUC), AUC norm value recorded for Cn1c(=O)n(-c2ccc(C(C)(C)C#N)cc2)c2c3cc(-c4cnc5ccccc5c4)ccc3ncc21
Output: 0.02041

Task: Consider the compound O=C(CCCCCCC(=O)Nc1ccccc1)NO [Vorinostat (SAHA), Vorinostat] . State its measured Average Area Under the Viability Curve (AUC), AUC norm value.
Output: −0.07666

Task: Query Average Area Under the Viability Curve (AUC), AUC norm value for COC1=CC(c2cc3ccccc3[nH]2)=N/C1=C\c1[nH]c(C)cc1C [Obatoclax mesylate (GX15-070), Obatoclax mesylate]
Output: −1.051

Task: Note Average Area Under the Viability Curve (AUC), AUC norm value for the compound shown: CO[C@@H](C(=O)N1Cc2n[nH]c(NC(=O)c3ccc(N4CCN(C)CC4)cc3)c2C1)c1ccccc1
Output: 0.1321

Task: Please indicate Average Area Under the Viability Curve (AUC), AUC norm value recorded for CCOc1cc2ncc(C#N)c(Nc3ccc(OCc4ccccn4)c(Cl)c3)c2cc1NC(=O)/C=C/CN(C)C
Output: −1.144

Task: Output Average Area Under the Viability Curve (AUC), AUC norm value of CC[C@]1(O)C[C@@H]2CN(CCc3c([nH]c4ccccc34)[C@@](C(=O)OC)(c3cc4c(cc3OC)N(C)[C@H]3[C@@](O)(C(=O)OC)[C@H](OC(C)=O)[C@]5(CC)C=CCN6CC[C@]43[C@@H]65)C2)C1
Output: 0.6639

Task: Indicate the recorded Average Area Under the Viability Curve (AUC), AUC norm value value for this compound: CC(C)C[C@H](NC(=O)[C@H](CCc1ccccc1)NC(=O)CN1CCOCC1)C(=O)N[C@@H](Cc1ccccc1)C(=O)N[C@@H](CC(C)C)C(=O)[C@@]1(C)CO1
Output: −0.3162
